target_or_test_system: T1, human IL-2Rβ (human, UniProt P14784 27-240, limits assumed)
T1 construct: Recombinant human IL-2Rβ protein, coated on ELISA plates or immobilized on a CM5 chip; also called hu IL-2R; interleukin 2 receptor β-chain
T1 sequence: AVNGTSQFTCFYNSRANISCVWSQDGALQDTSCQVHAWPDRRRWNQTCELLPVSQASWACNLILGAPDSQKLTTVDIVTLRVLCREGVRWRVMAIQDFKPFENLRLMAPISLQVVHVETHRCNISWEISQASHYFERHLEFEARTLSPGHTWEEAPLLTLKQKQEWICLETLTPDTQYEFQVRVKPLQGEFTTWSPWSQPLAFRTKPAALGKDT
assay_protocol: SPR off-rate ranking of P.E., human IL-2Rβ immobilized
Procedure: SPR was performed to determine dissociation rates using Biacore 3000 instrument (GE Healthcare). Briefly, human and mouse IL-2R proteins were immobilized on carboxylmethyl dextran sensor chip (CM5) at approximately 2500 RUs using amine coupling in acetate buffer (GE Healthcare). The VHH-containing P.E. were loaded with a flow rate of 30 uL/min and the off-rates were measured over a 120s period.
quantity_measured: koff (s⁻¹)

>  <binder>
FJ1427_P035MP06H05 (VHH, Soluble VHH in periplasmic extract (P.E.); also called Clone nr; 520) VHH: QVQLVESGGRLVQAGGSLRLSCVVSGDVFVRYTMAWFRQAPGKEREFVAVVTDSGRTTEYVGSVKGRFTVSRDNAKNTVYLQMNNLKPEDTAVYYCAANTDYFQIRSVDNNAWGQGTQVTVSS

>  <recorded_value>
0.000885

$$$$
>  <binder>
FJ1427_P035MP06B07 (VHH, Soluble VHH in periplasmic extract (P.E.); also called Clone nr; 530) VHH: EVQLVESGGGLVQAGGSLRLSCAVSGDVFVRYTMAWFRQAPGKEREFVASVTDSGRTTEYVDSVKGRFTVSRDNAKNTAYLQMNNLKPEDTAVYYCAANTDYFQIRSLDLNTWGQGTQVTVSS

>  <recorded_value>
0.000285

$$$$
>  <binder>
FJ1427_P035MP06G02 (VHH, Soluble VHH in periplasmic extract (P.E.); also called Clone nr) VHH: EVQLVESGGGLVQAGGSLRLSCVVSGDVFVRYTMAWFRQAPRKEREFVAVVTDSGRTTEYVDSVKGRFTVSRDNAKNTVYLQMNNLKPEDTAVYYCAANTDYFQIRSVDNNAWGQGTQVTVSS

>  <recorded_value>
0.000619

$$$$
>  <binder>
FJ1427 P035MP06D08 (VHH, Soluble VHH in periplasmic extract (P.E.); also called Clone nr; 540) VHH: QVQLVESGGGLVQAGGSLRLSCAVSGDVFVRYTMAWFRQAPGKEREFVASVTDSGRTTEYVDSVKGRFTVSRDNAKNTAYLQMNNLKPEDTAVYYCAANTDYFQIRSLDLNTWGQGTQVTVSL

>  <recorded_value>
0.000209

$$$$
>  <binder>
FJ1427_P035MP06H03 (VHH, Soluble VHH in periplasmic extract (P.E.); also called Clone nr) VHH: QVQLVESGGGLVQAGGSLRLSCAVSGDVFVRYTMAWFRQAPGKEREFVASVTDSGRTTEYVDSVKGRFTVSRDNAKNTAYLQMNNLKPEDTAVYYCAANTDYFQIRSLDLNTWGQGTQVTVSS

>  <recorded_value>
0.000196

$$$$
>  <binder>
FJ1427_P035MP06G03 (VHH, Soluble VHH in periplasmic extract (P.E.); also called Clone nr; 503) VHH: QVQLVESGGGLVQAGGSLRLSCVVSGDVFVRYTMAWFRQAPGKEREFVAVVTDSGRTTEYVDSVKGRFTVSRDNAKNTVYLQMNNLKPEDTAVYYCAANTDYFQIRSVDNNAWGQGTQVTVSS

>  <recorded_value>
0.000586

$$$$
>  <binder>
FJ1427_P035MP06E08 (VHH, Soluble VHH in periplasmic extract (P.E.); also called Clone nr) VHH: EVQLVESGGGLVQAGGSLRLSCAVSGDVFVRYTMAWFRQAPGKEREFVASVTDSGRTTEYVDSVKGRFTVSRDNAKNTAYLQMNNLKPEDTAVYYCAANTDYFQIRSLDLNTWGQGTQVTVSS

>  <recorded_value>
0.000267

$$$$
>  <binder>
FJ1427_P035MP06A09 (VHH, Soluble VHH in periplasmic extract (P.E.); also called Clone nr) VHH: EVQLVESGGGLVQAGGSLRLSCAASGDVFVRYTMAWFRQAPGKEREFVASVTDSGRTTDYVDSVKGRFTVSRDNAKNTVYLQMNNLKPEDTAVYYCAANTDYFQIKSLDRNTWGQGTQVTVSS

>  <recorded_value>
0.000947

$$$$
>  <binder>
FJ1427 P035MP06B06 (VHH, Soluble VHH in periplasmic extract (P.E.); also called Clone nr) VHH: EVQLVESGGGLVQAGGPLRLSCAVSGDVFVRYTMAWFRQAPGKEREFVASVTDSGRTTEYVDSVKGRFTVSRDNAKNTAYLQMNNLKPEDTAVYYCAANTDYFQIRSLDLNTWGQGTQVTVSS

>  <recorded_value>
0.000324

$$$$
>  <binder>
FJ1427_P035MP06D03 (VHH, Soluble VHH in periplasmic extract (P.E.); also called Clone nr; 500) VHH: QVQLVESGGGLVQAGGSLRLSCAASGDVFVRYTMAWFRQAPGKEREFVASVTDSGRTTEYVDSVKGRFTVSRDNAKNTAYLQMNNLKPEDTAIYYCAANTDYFQIRSLDLNTWGQGTQVTVSS

>  <recorded_value>
0.00029

$$$$
>  <binder>
FJ1427_P035MP06G10 (VHH, Soluble VHH in periplasmic extract (P.E.); also called Clone nr) VHH: QVQLVESGGGLVQAGGSLRLSCAASGDVFVRYTMAWFRQAPGKEREFVASVTDSGRTTEYVDSVKGRFTVSRDNAKNTAYLQMNNLKPEDTAVYYCAANTDYFQIRSLNLNTWGQGTQVTVSS

>  <recorded_value>
0.000261

$$$$
>  <binder>
FJ1427 P035MP06F04 (VHH, Soluble VHH in periplasmic extract (P.E.); also called Clone nr; 510) VHH: QVQLVESGGGLVQAGGSLRLSCAVSGDVFVRYTMAWFRQAPGKEREFVASVTDSGRTTEYVDSVKGRFTVSRDNAKNTVYLQMNSLKPEDTAVYYCAANTDYFQIRSLRANTWGQGTQVTVSS

>  <recorded_value>
0.000487

$$$$
>  <binder>
FJ1427 P035MP06E12 (VHH, Soluble VHH in periplasmic extract (P.E.); also called Clone nr) VHH: QVQLVESGGGLVQAGGSLRLSCAASGDVFVRYTMAWFRQAPGKEREFVASVTDSGRTTDYVDSVKGRFTVSRDNAKNTVYLQMNALKPEDTAVYYCAANTDYFQIKSLDLNTWGQGTQVTVSS

>  <recorded_value>
0.000496

$$$$
>  <binder>
FJ1427_P035MP06B09 (VHH, Soluble VHH in periplasmic extract (P.E.); also called Clone nr; 546) VHH: QVQLVESGGGLVQAGGSLRLSCAVSGDVLVRYTMAWFRQAPGKEREFVASVTDSGRTTEYVDSVKGRFTVSRDNAKNTAYLQMNNLKPEDTAVYYCAANTDYFQIRSLDLNTWGQGTQVTVSS

>  <recorded_value>
0.00225

$$$$
>  <binder>
FJ1427 P035MP06E03 (VHH, Soluble VHH in periplasmic extract (P.E.); also called Clone nr) VHH: EVQLVESGGGLVQAGGSLRLSCAASGDVFVRYTMAWFRQAPGKEREFVASVTDSGRTTDYVDSVKGRFTVSRDNAKNTVYLQMNNLKPEDTAVYYCAANTDYFQIKSLDRNTWGQGTQVTVSP

>  <recorded_value>
0.000745

$$$$
